The reported measurements were obtained from PubChem BioAssay AID1159580.

Test Details: chemical genetic growth profiling, strain panel (AID 1159580);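 note: tested at 20 µM; growth read once vehicle control cultures reached saturation at 30 °C; 1 = growth at the plate median or of vehicle wells; lower values mean less growth of the strain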
Measurement Context: S. cerevisiae deletion strains, growth OD, locus YJR075W, strain HOC1
The whole screen tested about 5,500 compounds, of which about 2,000 (36%) were called active. About 18% were inconclusive and are not listed. Cut-off read from the data, not from the text of the source: active = normalized growth mostly below about 0.91 (no sharp cut-off); inconclusive = no clear call, values can overlap the other calls; inactive = mostly above about 0.92. This is one part of the list.
// one of 1 = active, 0 = inactive, no free text

Reference set, count: 2
| Compound | Group |
| --- | --- |
| COc1cc2ccc(=O)oc2c(O)c1O | 0 |
| C[C@]12CCC3C(CC[C@H]4C[C@@H](O)CC[C@]34C)C1CCC2=O (stereo partly drawn) | 1 |

Problem: I would be grateful if you could indicate the recorded call for COc1ccc2c3c1O[C@H]1C(=O)CC[C@@]4(O)C(C2)N(CC2CC2)CCC314 (stereo partly drawn) .
Solution: 0

Problem: Hi, sorry to bother you, what did the test record for OCCN1CCN(CCCN2c3ccccc3Sc3ccc(Cl)cc32)CC1 ?
Solution: 0

* * *

Test Details: chemical genetic growth profiling, strain panel (AID 1159580);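 note: tested at 20 µM; growth read once vehicle control cultures reached saturation at 30 °C; 1 = growth at the plate median or of vehicle wells; lower values mean less growth of the strain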
Measurement Context: S. cerevisiae deletion strains, growth OD, locus YOR080W, strain dia2, active compounds read low
The campaign covered roughly 5,500 compounds. About 2,000 (36%) were called active. Not shown: some 18% with an inconclusive outcome. This is one part of the list.
Observation Type: normalized growth
No unit in the answer, please; the number alone is enough.

A selection of reference data follows.
| Molecule | normalized growth |
| --- | --- |
| O=C(O)CCCN1C(=O)c2cccc3cccc(c23)C1=O | 1.02 |
| CC(=O)O[C@@H]1CC2C(C)(C)[C@H](O)C[C@H](O)[C@]2(C)C2CC[C@@]3(C)C(=CC(=O)O[C@H]3c3ccoc3)[C@@]21C (some centres not stated) | 0.986 |
| O=C1c2ccccc2-c2cccc3cccc1c23 | 0.981 |

Problem: Need normalized growth of CCCCCN=C(N)N/N=C\c1c[nH]c2ccc(OC)cc12 , thanks.
Solution: 1

Problem: Consider the molecule CC(=O)OCC(=O)[C@@]1(O)CCC2C3CCC4=CC(=O)CC[C@]4(C)[C@@]3(F)[C@@H](O)C[C@@]21C (some centres not stated) and give its measured normalized growth.
Solution: 1.01

Problem: # query: normalized growth of entry Cc1cccc(N(C)C(=S)Oc2ccc3ccccc3c2)c1
Solution: 0.981

Problem: Data request, read-out normalized growth, for Cc1ncc([N+](=O)[O-])n1CCO
Solution: 0.977

Problem: Entry FC(F)(F)COCC(F)(F)F has what normalized growth?
Solution: 1.01

Problem: Entry N#C/C(=C\c1ccc(O)cc1)C(=O)O : reported normalized growth = ?
Solution: 0.996

Problem: Name the recorded normalized growth for Cn1c([N+](=O)[O-])cnc1COC(N)=O .
Solution: 1.01

Problem: Record request: normalized growth value, item COc1c(O)cc(O)cc1O
Solution: 0.99

Problem: Tell me the measured normalized growth of CC(C(=O)O)c1ccc(N2Cc3ccccc3C2=O)cc1 (configuration not stated) , please.
Solution: 0.987

Problem: Which value of normalized growth has been reported for C[N+]1(C)CCc2cc3c(cc2[C@H]1C1OC(=O)c2c1ccc1c2OCO1)OCO3 (some centres not stated) in the records?
Solution: 1.01

* * *

Test Details: chemical genetic growth profiling, strain panel (AID 1159580);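 note: tested at 20 µM; growth read once vehicle control cultures reached saturation at 30 °C; 1 = growth at the plate median or of vehicle wells; lower values mean less growth of the strain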
Measurement Context: S. cerevisiae deletion strains, growth OD, locus YLR370C, strain arc18, active compounds read low
Out of some 5,500 compounds screened, about 2,000 (36%) were called active. Not shown: some 18% with an inconclusive outcome. Some of the results follow.
Observation Type: normalized growth
Output: the number by itself.

| Compound | normalized growth |
| --- | --- |
| COc1ccc2c(=O)c(CC(=O)O)coc2c1 | 0.974 |
| CC1=C2CCC3C(CC[C@]4(C)C(=O)CCC34)[C@@]2(C)CCC1=O (stereo partly specified) | 0.986 |
| C[C@H]1C(=O)O[C@@H]2CCN3CC=C(COC(=O)[C@](C)(O)[C@]1(C)O)[C@H]23 | 0.986 |
| CC(=O)O[C@@H]1CC2C(C)(C)[C@H](O)C[C@H](O)[C@]2(C)C2CC[C@@]3(C)C(=CC(=O)O[C@H]3c3ccoc3)[C@@]21C (stereo partly specified) | 0.983 |
| CC(=O)O[C@H]1CC2CCC3C(CC[C@@]4(C)C3C[C@H]([N+]3(C)CCCCC3)[C@@H]4OC(C)=O)[C@@]2(C)C[C@@H]1[N+]1(C)CCCCC1 (stereo partly specified) | 1.03 |
| O=c1n(CCCN2CCN(c3cccc(Cl)c3)CC2)nc2ccccn12 | 0.982 |

Problem: Need normalized growth of CC(C)=CCC1=C(O)c2ccccc2C(=O)C1=O , thanks.
Solution: 0.806

Problem: Find the recorded normalized growth belonging to CSCCC(NC=O)C(=O)NC(CC(C)C)C(=O)NC(Cc1ccccc1)C(=O)O (stereo unspecified) and report it.
Solution: 1

Problem: Consider the compound CC1(C)C[C@@H]2C(=O)CC[C@H]3O[C@]3(C)CC[C@H]21 and give its measured normalized growth.
Solution: 1.01

Problem: What measured normalized growth goes with CCCCCN=C(N)N/N=C\c1c[nH]c2ccc(OC)cc12 ?
Solution: 1

Problem: Can you share its normalized growth? I mean this compound: N#Cc1ccc2c(c1)N(CCCN1CCC(O)CC1)c1ccccc1S2
Solution: 0.994
